Target: T1, catalytic domain of MMP-14 (cdMMP-14) (human, UniProt P50281 114-287, limits assumed, biotinylated (Sulfo-NHS-LC-Biotin) where immobilised via streptavidin)
T1 construct: also called matrix metalloproteinase-14 catalytic domain; wild-type MMP-14
Test: ELISA, Fab titrated on immobilised biotin-cdMMP-14, anti-Fab-HRP
Criterion: EC50 strictly less than 700 nM. Met: TRUE. Not met: FALSE.

These recorded examples may help you get a feel for the data.
Fab R2C14 (Fab, V domains shown) VH: EVQLVESGGGLVQPGGSLRLSCAASGFNIYSSSIHWVRQAPGKGLEWVASIYSYSGYTYYADSVKGRFTISADTSKNTAYLQMNSLRAEDTAVYYCARVSNRYNRSSASIAGLQLFRPYGMDYWGQGTLVTVSS VL: DIQMTQSPSSLSASVGDRVTITCRASQSVSSAVAWYQQKPGKAPKLLIYSASSLYSGVPSRFSGSRSGTDFTLTISSLQPEDFATYYCQQSSYSLITFGQGTKVEIKR ... FALSE
Fab 33F5 (Fab, V domains shown, also called R2C20; not shown: His tag at the C-terminus of the heavy chain) VH: EVQLVESGGGLVQPGGSLRLSCAASGFNLYYSYMHWVRQAPGKGLEWVAYISPSSSSTYYADSVKGRFTISADTSKNTAYLQMNSLRAEDTAVYYCARNFRVESAGRPGKTVLRKDGKYAMDYWGQGTLVTVSS VL: DIQMTQSPSSLSASVGDRVTITCRASQSVSSAVAWYQQKPGKAPKLLIYSASSLYSGVPSRFSGSRSGTDFTLTISSLQPEDFATYYCQQSSVGLFTFGQGTKVEIKR ... FALSE
Fab R2C5 (Fab, V domains shown) VH: EVQLVESGGGLVQPGGSLRLSCAASGFNLSSYYMHWVRQAPGKGLEWVASIYPYSSYTSYADSVKGRFTISADTSKNTAYLQMNSLRAEDTAVYYCARIMKIKRNSLKFRGFVPLQMQYVMDYWGQGTLVTVSS VL: DIQMTQSPSSLSASVGDRVTITCRASQSVSSAVAWYQQKPGKAPKLLIYSASSLYSGVPSRFSGSRSGTDFTLTISSLQPEDFATYYCQQSYGLFTFGQGTKVEIKR ... TRUE
Fab R3C8 (Fab, V domains shown) VH: EVQLVESGGGLVQPGGSLRLSCAASGFNFSSSSIHWVRQAPGKGLEWVASIYPSYSYTYYADSVKGRFTISADTSKNTAYLQMNSLRAEDTAVYYCARHCLLRSRRCEMSTKTRELNVYRYAMDYWGQGTLVTVSS VL: DIQMTQSPSSLSASVGDRVTITCRASQSVSSAVAWYQQKPGKAPKLLIYSASSLYSGVPSRFSGSRSGTDFTLTISSLQPEDFATYYCQQWPVGSSYPITFGQGTKVEIKR ... FALSE
Fab 32C11 (Fab, V domains shown, also called R3C7; not shown: His tag at the C-terminus of the heavy chain) VH: EVQLVESGGGLVQPGGSLRLSCAASGFNLYYSSIHWVRQAPGKGLEWVASISSYSSYTYYADSVKGRFTISADTSKNTAYLQMNSLRAEDTAVYYCAREIHMLSRQARYLRDGRRPRGSMYVMDYWGQGTLVTVSS VL: DIQMTQSPSSLSASVGDRVTITCRASQSVSSAVAWYQQKPGKAPKLLIYSASSLYSGVPSRFSGSRSGTDFTLTISSLQPEDFATYYCQQYGAGLITFGQGTKVEIKR ... TRUE

Q: Please check: EC50 for Fab R2C4 (Fab, V domains shown) VH: EVQLVESGGGLVQPGGSLRLSCAASGFNLSYYYMHWVRQAPGKGLEWVAYISSYSGYTYYADSVKGRFTISADTSKNTAYLQMNSLRAEDTAVYYCARGWRVYADRGHVRGYFRVWYGMDYWGQGTLVTVSS VL: DIQMTQSPSSLSASVGDRVTITCRASQSVSSAVAWYQQKPGKAPKLLIYSASSLYSGVPSRFSGSRSGTDFTLTISSLQPEDFATYYCQQGAGLITFGQGTKVEIKR , strictly under 700 nM or not?
Ans: FALSE

Q: Please check: EC50 for Fab 3F3 (Fab, V domains shown, also called R2C13; not shown: His tag at the C-terminus of the heavy chain) VH: EVQLVESGGGLVQPGGSLRLSCAASGFNIYSSSMHWVRQAPGKGLEWVAYIYPYSGYTYYADSVKGRFTISADTSKNTAYLQMNSLRAEDTAVYYCARLYNGWLMVEGIGSAREGPTWYAMDYWGQGTLVTVSS VL: DIQMTQSPSSLSASVGDRVTITCRASQSVSSAVAWYQQKPGKAPKLLIYSASSLYSGVPSRFSGSRSGTDFTLTISSLQPEDFATYYCQQGGVYAAHPFTFGQGTKVEIKR , strictly under 700 nM or not?
Ans: TRUE

Q: Please check: EC50 for Fab R3C15 (Fab, V domains shown) VH: EVQLVESGGGLVQPGGSLRLSCAASGFNISYSYMHWVRQAPGKGLEWVASISPYSGYTYYADSVKGRFTISADTSKNTAYLQMNSLRAEDTAVYYCARGVRGNKLRLLSSRSGRMESHYVMDYWGQGTLVTVSS VL: DIQMTQSPSSLSASVGDRVTITCRASQSVSSAVAWYQQKPGKAPKLLIYSASSLYSGVPSRFSGSRSGTDFTLTISSLQPEDFATYYCQQAGSLFTFGQGTKVEIKR , strictly under 700 nM or not?
Ans: TRUE

Q: Please check: EC50 for Fab R2C9 (Fab, V domains shown) VH: EVQLVESGGGLVQPGGSLRLSCAASGFNIYSYSMHWVRQAPGKGLEWVAYIYPYSGYTYYADSVKGRFTISADTSKNTAYLQMNSLRAEDTAVYYCARVLNIFMDVGAARFPGLVRYGMDYWGQGTLVTVSS VL: DIQMTQSPSSLSASVGDRVTITCRAGQDVSSAVAWYQQKPGKAPKLLIYSASTLHSGVPSRFSGSRSGTDFTLTISSLQPEDFATYYCQQSGPYSLFTFGQGTKVEIKR , strictly under 700 nM or not?
Ans: TRUE

Q: Please check: EC50 for Fab R3C10 (Fab, V domains shown) VH: EVQLVESGGGLVQPGGSLRLSCAASGFNIYYSSMHWVRQAPGKGLEWVASISPYYGYTYYADSVKGRFTISADTSKNTAYLQMNSLRAEDTAVYYCARGSLRRDFNLVVRSSWDIRSNYVMDYWGQGTLVTVSS VL: DIQMTQSPSSLSASVGDRVTITCRASQSVSSAVAWYQQKPGKAPKLLIYSASSLYSGVPSRFSGSRSGTDFTLTISSLQPEDFATYYCQQSWPYPITFGQGTKVEIKR , strictly under 700 nM or not?
Ans: FALSE

Q: Please check: EC50 for Fab 3A2 (Fab, V domains shown, also called R3C9; not shown: His tag at the C-terminus of the heavy chain) VH: EVQLVESGGGLVQPGGSLRLSCAASGFNLSSSSMHWVRQAPGKGLEWVASIYPSYSYTYYADSVKGRFTISADTSKNTAYLQMNSLRAEDTAVYYCARVKLQKDKSHQWIRNLVATPYGRYVMDYWGQGTLVTVSS VL: DIQMTQSPSSLSASVGDRVTITCRASQSVSSAVAWYQQKPGKAPKLLIYSASSLYSGVPSRFSGSRSGTDFTLTISSLQPEDFATYYCQQYGYPITFGQGTKVEIKR , strictly under 700 nM or not?
Ans: TRUE
